Values were extracted from patent US20260169011A1.

Assay: NutriPro test: serum, RBC and WBC nutrient values before and after ATB / customized blend
Type: in vivo, human
Details: person one; serum; before ATB
Quantity Kind: Pre-test biomarker level (ng/mL)
// units = ng/mL; emit number, no label

Some entries whose results are on file:
| Compound | Pre-test biomarker level / ng/mL |
| --- | --- |
| Nc1nc2ncc(CNc3ccc(C(=O)N[C@@H](CCC(=O)O)C(=O)O)cc3)nc2c(=O)[nH]1 [Folate] | 1.2 |
| COC1=C(OC)C(=O)C(C/C=C(\C)CC/C=C(\C)CC/C=C(\C)CC/C=C(\C)CC/C=C(\C)CC/C=C(\C)CC/C=C(\C)CC/C=C(\C)CC/C=C(\C)CCC=C(C)C)=C(C)C1=O [Coenzyme 10] | 200 |
| [Cu] [Copper] | 200 |
| C=C1CC[C@H](O)C/C1=C/C=C1\CCC[C@]2(C)[C@@H]([C@H](C)CCCC(C)C)CC[C@@H]12 [Vitamin D3] | 0.5 |
| O=C(O)c1cccnc1 [Vitamin B3] | 1.1 |
| [Ca] [Calcium] | 65000 |

# input compound: [Mg] [Magnesium] ; wanted: its Pre-test biomarker level 5000

---

Recorded Post-test biomarker level, one value per entry.
Experiment: NutriPro test: serum, RBC and WBC nutrient values before and after ATB / customized blend
Type: in vivo, human
Conditions: female, human, in vivo
Write the value in nmol/mL as a bare number.

Given `N=C(N)NCCC[C@H](N)C(=O)O` , state its recorded Post-test biomarker level. 67

For `O[C@H]1[C@H](O)[C@@H](O)[C@H](O)[C@@H](O)[C@H]1O` , what is its reported Post-test biomarker level? 12.9

---

Assay: Vibrant Absorption Factor (VAF): difference of post- and pre-supplementation nutrient values divided by ATB dosage
Conditions: person two; cells
Quantity Kind: VAF
Enter the number alone.

The following compounds have reported results that may help.
| Compound | Test Value |
| --- | --- |
| CC/C=C\C/C=C\C/C=C\C/C=C\C/C=C\C/C=C\CCC(=O)O [DHA] | 0.14 |
| C=C1CC[C@H](O)C/C1=C/C=C1\CCC[C@]2(C)[C@@H]([C@H](C)CCCC(C)C)CC[C@@H]12 [Vitamin D3] | 0.067 |
| O=C1O[C@H]([C@@H](O)CO)C(O)=C1O [Vitamin C] | 0.06667 |

Consider the record given below.
Which VAF value belongs to [Mn+2] [Manganese] ? 7.684

---

Assay: Vibrant Absorption Factor (VAF): difference of post- and pre-supplementation nutrient values divided by ATB dosage
Details: person two; serum
// NB: equality with 0.8 counts as rule not met; only VAF strictly below is rule met

Consider `CC(C)(CO)[C@@H](O)C(=O)NCCC(=O)O` . Does its VAF lie strictly below 0.8? rule not met

---

Assay: NutriPro test: serum, RBC and WBC nutrient values before and after ATB / customized blend
Type: in vivo, human
Conditions: person two; serum; after ATB
Hi! Could you tag entries with Post-test biomarker level below 20 ng/mL as YES, and those at or above as NO? Much appreciated.

These recorded examples may help you get a feel for the data.
| Compound | Class Assignment |
| --- | --- |
| [Mn+2] [Manganese] | YES |
| CC(C)(CO)[C@@H](O)C(=O)NCCC(=O)O [Vitamin B5] | NO |
| CC1=C(C/C=C(\C)CCC[C@H](C)CCC[C@H](C)CCCC(C)C)C(=O)c2ccccc2C1=O [Vitamin K1] | YES |
| [Ca] [Calcium] | NO |

Here is the next item to consider.
Quick check: does COC1=C(OC)C(=O)C(C/C=C(\C)CC/C=C(\C)CC/C=C(\C)CC/C=C(\C)CC/C=C(\C)CC/C=C(\C)CC/C=C(\C)CC/C=C(\C)CC/C=C(\C)CCC=C(C)C)=C(C)C1=O [Coenzyme 10] have Post-test biomarker level under 20 ng/mL? NO
